- System: CCRF-CEM leukemia
- protocol_description: NCI tumour cell line growth inhibition, 48 h; in the data active = GI50 below about 0.43 µM; inactive = the rest
Labels: YES for active, NO for inactive

| compound | classification |
| --- | --- |
| CCC[CH2][Sn]1([CH2]CCC)[O]CC(CN2CCCCC2)[O]1 (centres undefined) | YES |
| c1cc[n+](C2c3ccccc3C([n+]3ccccc3)c3ccccc32)cc1 (centres undefined) | NO |
| COc1cccc(C2=C(c3cn(C)c4ccc(Cl)cc34)C(=O)NC2=O)c1 | NO |
| COc1cc(/C=C/C(=O)c2ccc(Nc3nc(NCCO)nc(N4CCOCC4)n3)cc2)cc(OC)c1OC | NO |
| O=C(c1ccc(Cl)c(Cl)c1)N1CCN(C(=O)c2ccc(Cl)c(Cl)c2)C1=S | NO |
| COc1ccc2c(c1)/C(=N/OC(C)=O)c1c-2c(Nc2cccc(/C(C)=N/OC(C)=O)c2)nc2ccccc12 | NO |
| O=C1/C=C/[C@@H](O)[C@@H]2C[C@@H](O)C[C@H]2/C=C/CCC[C@H](CCOCc2ccccc2)O1 | YES |
| CN[C@@H](C)C(=O)N[C@H]1CCS[C@H]2CC(C)(C)[C@@H](C(=O)N[C@H]3c4ccccc4C[C@H]3OCC#CC#CCO[C@@H]3Cc4ccccc4[C@@H]3NC(=O)[C@H]3N4C(=O)[C@@H](NC(=O)[C@H](C)NC)CCS[C@H]4CC3(C)C)N2C1=O | YES |
| O=C1/C(=C/c2ccccc2)CN(C(=O)CCN2CCC(=NO)CC2)C/C1=C\c1ccccc1 | NO |
| Nc1ccc(S(=O)(=O)c2ccc(N)cc2)cc1 | NO |
| CNC(=O)c1ccccc1Nc1cc(Nc2ccc(N3CCOCC3)cc2OC)ncc1C(F)(F)F | NO |
| COc1cccc2c1C(=O)c1c(O)c3c(c(O)c1C2=O)C[C@@](O)(C(=O)CO)C[C@@H]3OC1CC2C(OCN3CN2COC2C(C)OC(O[C@H]4C[C@](O)(C(=O)CO)Cc5c(O)c6c(c(O)c54)C(=O)c4c(OC)cccc4C6=O)CC23)C(C)O1 (some centres undefined) | YES |
| Nc1n[nH]c2cccc(C#Cc3cccc(NC(=O)c4ccc(N5CCOCC5)c(C(F)(F)F)c4)c3)c12 | NO |
| CSc1nc(-c2cc3ccccc3o2)cc(-c2ccc(Cl)cc2)c1C#N | NO |

###

- System: UO-31 renal
- protocol_description: NCI tumour cell line growth inhibition, 48 h
Where a SMILES comes first, the peptide text is derived from it. Bridges are numbered along the chain shown (N, C = ends). [ ]: non-standard residue; d: D form. The star is where a group is joined. ξ: configuration not given here. X26 = O=C(/C=C/C=C/C=C/C=C/C=C/C(=O)*)NC1=C(O)CCC1=O; Pro(4R-Me) = C[C@H]1CN[C@H](C(=O)O)C1; NMeA = CN[C@@H](C)C(=O)O; ξF = NC(Cc1ccccc1)C(=O)O; ξA = CC(N)C(=O)O
readout_type: TGI (µM)

| compound | subject_of_test | endpoint_unit | censoring_sign | endpoint_result |
| --- | --- | --- | --- | --- |
| O=C1/C=C/[C@@H](O)[C@@H]2C[C@@H](O)C[C@H]2/C=C/CCC[C@H](CCOCc2ccccc2)O1 | UO-31 renal | µM | = | 26.6 |
| Cc1ccc(S(=O)(=O)c2ccccc2)cc1 | UO-31 renal | µM | > | 100 |
| Clc1ccc(C(Cn2ccnc2)OCc2ccsc2Cl)c(Cl)c1 (stereo not drawn) | UO-31 renal | µM | = | 11.1 |
| O=C(c1ccco1)c1nc2ccc(Cl)cc2[n+]([O-])c1C(F)(F)F | UO-31 renal | µM | > | 100 |
| COc1cc(C=C(c2ccc(N(C)C)cc2)c2ccc(N(C)C)cc2)c2ccccc2c1OC | UO-31 renal | µM | > | 100 |
| CC1NC(=O)[C@H](C)N(C)C(=O)[C@@H]2CCCN2C(=O)[C@@H](NC(=O)C(Cc2ccccc2)NC(=O)/C=C/C=C/C=C/C=C/C=C/C(=O)NC2=C(O)CCC2=O)COC(=O)[C@@H]2C[C@@H](C)CN2C1=O (stereo partly drawn) (X26-[ξF]SP[NMeA][ξA][Pro(4R-Me)]; ester 2-C) | UO-31 renal | µM | > | 100 |
| O=C1C=CC(O)(C#CCO)C=C1 | UO-31 renal | µM | = | 32.3 |
| C[C@]12CC[C@@H]3c4cc(Br)c(O)c(Br)c4CC[C@H]3[C@@H]1CC(Br)C2=O (stereo partly drawn) | UO-31 renal | µM | = | 9.03 |

###

- Test system: NCI-H226 lung
- protocol_description: NCI tumour cell line growth inhibition, 48 h
Some molecules, each annotated with its measured TGI.
readout_type: TGI (µM)

| molecule | readout_type | censoring_sign | endpoint_result |
| --- | --- | --- | --- |
| COc1ccc(/C=C2\N=C(N/N=C\C(O)C(O)C(O)C(O)CO)NC2=O)cc1 (stereo not given) | TGI | > | 100 |
| COc1ccccc1N1C(=O)CSC1c1c[nH]c2ccccc12 (stereo not given) | TGI | > | 100 |
| N#CC1(Nc2ccc(Br)cc2)CCCC1 | TGI | > | 100 |
| CCc1n[nH]c(=O)n1/N=C/c1ccc(/C=N/n2c(CC)n[nH]c2=O)cc1 | TGI | > | 100 |
| Cc1ccc(S(=O)(=O)c2ccccc2)cc1 | TGI | > | 100 |
| C[C@]12CC[C@@H]3c4cc(Br)c(O)c(Br)c4CC[C@H]3[C@@H]1CC(Br)C2=O (stereo not given in full) | TGI | = | 26.6 |
| Cc1cc(C(=O)NCCN(C)C)c2nc3ccccc3cc2c1 | TGI | = | 3.33 |
| C=CCN1C(=O)c2cccc3c(N4CCOCC4)ccc(c23)C1=O | TGI | = | 1.75 |
| O=C1C=CC(O)(C#CCO)C=C1 | TGI | = | 28.1 |
| O=[N+]([O-])c1ccc2c(c1)c1nn2CCCCOc2nn(c3ccc([N+](=O)[O-])cc23)CCCCO1 | TGI | > | 100 |
| COC(=O)c1oc([N+](=O)[O-])c(Cl)c1Cl | TGI | = | 42.9 |
| O=C(Cc1n[nH]c(=O)c2ccccc12)OCc1c(Cl)cccc1Cl | TGI | > | 100 |
| Nc1ncnc2c1ncc(=O)n2C1CC(O)C(CO)O1 (stereo not given) | TGI | > | 100 |
| COc1ccc(/C=C2/SC(c3ccc(Cl)cc3)N(NC(=O)CCCCCCCCC(=O)NN3C(=O)/C(=C\c4ccc(OC)c(OC)c4)SC3c3ccc(Cl)cc3)C2=O)cc1OC (stereo not given) | TGI | > | 100 |
| Cc1nc2ccccc2nc1NNc1ccccc1 | TGI | = | 85.7 |

###

- Tested on: HT29 colon
- protocol_description: NCI tumour cell line growth inhibition, 48 h
The following compounds are listed with their measured TGI values.
readout_type: TGI

| compound | endpoint_result |
| --- | --- |
| COc1ccc(-c2cn[nH]c2-c2cc(OC)c(OC)c(OC)c2)cc1OCc1ccccc1 | 15.8 µM |
| COc1nc(N)c(N=O)c(OCc2ccccc2)n1 | > 10 µM |
| Nc1cccc2nnccc12 | > 100 µM |
| O=C(/C=C/c1ccc(O)c(O)c1)OCCCOC(=O)/C=C/c1ccc(O)c(O)c1 | > 100 µM |
| Nc1n[nH]c2cccc(C#Cc3cccc(NC(=O)c4ccc(N5CCOCC5)c(C(F)(F)F)c4)c3)c12 | 4.55 µM |
| Cc1ccc(-c2cc(-c3ccccc3)nc(N)n2)c(O)c1 | > 100 µM |
| CCOC(=O)CC[C@H](NC(=O)c1[nH]cnc1/N=N/N(C)C)C(=O)OCC | > 100 µM |
| C1C[OH+]CC[OH+]CC[OH+]CC[OH+]CC[OH+]CC[OH+]1.[Cl-].[V] | > 100 µM |
| CC1(C)CC(C)(C)CC(O)(C2(O)CC(C)(C)CC(C)(C)C2)C1 | > 100 µM |
| COc1ccc(C(C)c2cc3c(cc2O)OCO3)cc1 (centres undefined) | 28.9 µM |
| Clc1cc(OC23CC4CC(CC(C4)C2)C3)nc(Cl)n1 | > 100 µM |
| COc1cc2c(c(OC)c1OC)-c1ccc(SC)c(=O)cc1[C@@H](NCc1ccccc1[N+](=O)[O-])CC2 | 0.0146 µM |
| CCCCCCCCCCc1c2nc(c(CCCCCCCCCC)c3ccc([nH]3)c(CCCCCCCCCC)c3ccc([nH]3)c(CCCCCCCCCC)c3nc1C=C3)C=C2 | > 100 µM |
| Cc1cc(Cl)nc(Nc2nc3ccccc3[nH]2)n1 | > 100 µM |
| c1cc[n+](C2c3ccccc3C([n+]3ccccc3)c3ccccc32)cc1 (centres undefined) | > 75.5 µM |
| CC[N+](CC)=c1cc2oc3cc(N(C)C)ccc3nc-2cc1C | > 100 µM |
| CC1CC/C(=C\c2ccc(F)cc2)C2=C1C(c1ccc(F)cc1)n1c(s/c(=C/c3cccc(Br)c3)c1=O)=N2 (centres undefined) | > 100 µM |
| CCO/C(O)=C(/C(=N)N1CCOCC1)C(=O)Nc1ccc(Cl)cc1 | > 100 µM |
| COC(=O)C12C3C4(C(=O)OC)C1C1(C(=O)OC)C2C3(C(=O)OC)C41C(=O)N(C(C)C)C(C)C (centres undefined) | > 100 µM |
| COc1cccc2[nH]c3c4c(c5c(c3c12)C(=O)N(CN1CCN(C)CC1)C5=O)CCC4 | 29.8 µM |
| C=CC(=O)C#CC#CC/C=C\CCCCCCC | > 20.6 µM |
| Cc1ccc(-n2c(O)c(C=N)c(=O)n(-c3ccc(C)cc3)c2=O)cc1 | > 100 µM |
| CN[C@@H](C)C(=O)N[C@H]1CCS[C@H]2CC(C)(C)[C@@H](C(=O)N[C@H]3c4ccccc4C[C@H]3OCC#CC#CCO[C@@H]3Cc4ccccc4[C@@H]3NC(=O)[C@H]3N4C(=O)[C@@H](NC(=O)[C@H](C)NC)CCS[C@H]4CC3(C)C)N2C1=O | > 50 µM |
| COc1ccc(/C(C)=C(\c2ccc(Cl)cc2)c2ccc(OCCN3CCCCC3)cc2)cc1 | 3.87 µM |
| CCCC[C@H](NC(=O)[C@H]1CCCCN1C)C(=O)N(C)[C@H](C[C@@H](OC(C)=O)c1nc(C(=O)N[C@@H](Cc2ccccc2)C[C@H](C)C(=O)OCC)cs1)C(C)C | 3.6 µM |
| C[C@H](C(=O)C12CC3CC(CC(C3)C1)C2)[C@H](O)c1ccccc1 | 34.1 µM |
| C[C@]12CC[C@@H]3c4cc(Br)c(O)c(Br)c4CC[C@H]3[C@@H]1CC(Br)C2=O (some centres undefined) | 10.7 µM |
| O=C1CC[C@H](NC(=O)Cc2ccccc2)C(=O)N1 | > 1250 µM |
| CCCCCCCCCCC(=O)CC(=O)c1c(O)cccc1O | > 100 µM |
| CN(C)CCn1c(=O)c2ccc(NCCCN(C)CCCNc3ccc4c(=O)n(CCN(C)C)c(=O)n5c6ccccc6c(=O)c3c45)c3c(=O)c4ccccc4n(c1=O)c23 | 1.06 µM |
| N#CC1(Nc2ccc(Br)cc2)CCCC1 | > 100 µM |
| C#Cc1cc(-c2nc3ccccc3s2)ccc1N | 33 µM |
| O=S1c2ccccc2N=C(c2cccc3ccccc23)CC1c1cccc2ccccc12 (centres undefined) | 49.5 µM |
| COc1ccc2c(c1)n([O-])c1cc(C#N)ccc1[n+]2=O | 10.1 µM |
| NS(=O)(=O)c1ccc(NC(=S)/N=C/c2c(O)c3ccccc3oc2=O)cc1 | > 100 µM |
| COC(=O)c1oc([N+](=O)[O-])c(Cl)c1Cl | 41.4 µM |
| CC(C)(C)/C(O)=C\c1nc2ccc(C(F)(F)F)cc2[nH]c1=O | > 100 µM |
| CCOC(=O)O/C(=C\c1ccc(OC)cc1)c1c(OC(=O)OCC)n(C(=O)OCC)c2ccccc12 | > 100 µM |
| CCCCCC(=O)Nc1n[nH]nc1C#N | > 100 µM |
